[
  {
    "given_smiles": "Cc1ccn2cc(-c3cc4ccc(N5CCN[C@H](C)C5)cc4oc3=O)nc2n1",
    "melting point": "297 to 300 °C"
  },
  {
    "given_smiles": "Cc1cn2cc(-c3cc4ccc(CCCN(C)C)cc4oc3=O)ccc2n1",
    "melting point": "176 to 178 °C"
  },
  {
    "given_smiles": "Cc1nc(Cl)cn2cc(-c3cc4ccc(N5CCN6CCC[C@@H]6C5)cc4oc3=O)nc12",
    "melting point": "268 to 272 °C"
  },
  {
    "given_smiles": "C[C@@H]1CN(c2ccc3cc(-c4cccs4)c(=O)oc3c2)C[C@H](C)N1",
    "melting point": "150 to 152 °C"
  }
]

====

readout_kind: melting point

[
  {
    "molecule": "C[C@H]1CN(c2ccc3cc(-c4ccc(N(C)C)nc4)c(=O)oc3c2)CCN1",
    "readout_kind": "melting point",
    "assay_value": "194 to 196 °C"
  },
  {
    "molecule": "O=c1oc2cc(N3CCNCC3)ccc2cc1-c1cn2cc(Cl)sc2n1",
    "readout_kind": "melting point",
    "assay_value": "240 to 242 °C"
  },
  {
    "molecule": "C[C@H]1CN(c2ccc3cc(-c4cn5cccc(Cl)c5n4)c(=O)oc3c2)CCN1C",
    "readout_kind": "melting point",
    "assay_value": "184 to 186 °C"
  },
  {
    "molecule": "CC(=O)O.CC(=O)O.CC[C@H]1CN(c2ccc3cc(-c4cn5cc(C)nc(C)c5n4)c(=O)oc3c2)CCN1CC",
    "readout_kind": "melting point",
    "assay_value": "170 to 174 °C"
  },
  {
    "molecule": "O=c1oc2cc(CN3CCC(O)CC3)ccc2cc1-c1cn2ccsc2n1",
    "readout_kind": "melting point",
    "assay_value": "248 to 252 °C"
  },
  {
    "molecule": "Cc1ccn2nc(-c3cc4ccc(N5CCN(C)CC5)cc4oc3=O)cc2c1",
    "readout_kind": "melting point",
    "assay_value": "279 to 281 °C"
  },
  {
    "molecule": "Cc1cn2cc(-c3cc4ccc(N5CCN(CC(C)(C)O)CC5)cc4oc3=O)nc2c(C)n1",
    "readout_kind": "melting point",
    "assay_value": "212 to 214 °C"
  },
  {
    "molecule": "Cc1cn2cc(-c3cc4ccc(N5CCCN(C)CC5)cc4oc3=O)nc2cn1",
    "readout_kind": "melting point",
    "assay_value": "234 to 235 °C"
  },
  {
    "molecule": "Cc1cn2cc(-c3cc4ccc(CCN(C)C)cc4oc3=O)nc2c(C)n1",
    "readout_kind": "melting point",
    "assay_value": "219 to 223 °C"
  },
  {
    "molecule": "C[C@@H]1CN(c2ccc3cc(-c4cn5cc(C6CC6)cc(F)c5n4)c(=O)oc3c2)CCN1",
    "readout_kind": "melting point",
    "assay_value": "254 to 264 °C"
  },
  {
    "molecule": "COc1ccc(-c2cc3ccc(N4CCNCC4)cc3oc2=O)cc1",
    "readout_kind": "melting point",
    "assay_value": "211 to 213 °C"
  },
  {
    "molecule": "COc1ccc(-c2cc3ccc(N4CCNCC4)cc3oc2=O)cc1F",
    "readout_kind": "melting point",
    "assay_value": "241 to 243 °C"
  },
  {
    "molecule": "COc1cccc(-c2cc3ccc(N4C[C@@H](C)N[C@@H](C)C4)cc3oc2=O)n1",
    "readout_kind": "melting point",
    "assay_value": "175 to 177 °C"
  },
  {
    "molecule": "COCCNCCCc1ccc2cc(-c3cn4cc(C)nc(C)c4n3)c(=O)oc2c1",
    "readout_kind": "melting point",
    "assay_value": "147 to 150 °C"
  },
  {
    "molecule": "C[C@H]1CN(c2ccc3cc(-c4cn5cc(F)cnc5n4)c(=O)oc3c2)CCN1",
    "readout_kind": "melting point",
    "assay_value": "230 to 236 °C"
  },
  {
    "molecule": "Cc1cn2cc(-c3cc4ccc(N5CCN(CCO)CC5)cc4oc3=O)cc2cn1",
    "readout_kind": "melting point",
    "assay_value": "212 to 215 °C"
  },
  {
    "molecule": "CN1CCN(c2ccc3cc(-c4ccsc4)c(=O)oc3c2)CC1",
    "readout_kind": "melting point",
    "assay_value": "151 to 153 °C"
  },
  {
    "molecule": "O=c1oc2cc(O[C@H]3CCNC3)ccc2cc1-c1nc2ccccc2s1",
    "readout_kind": "melting point",
    "assay_value": "205 to 211 °C"
  },
  {
    "molecule": "Cc1cn2cc(-c3cc4ccc(N5C[C@H]6CCCN(C)[C@H]6C5)cc4oc3=O)nc2c(C)n1",
    "readout_kind": "melting point",
    "assay_value": "232 °C"
  },
  {
    "molecule": "Cc1ccc2oc(-c3cc4ccc(N5CCN(C)CC5)cc4oc3=O)cc2n1",
    "readout_kind": "melting point",
    "assay_value": "178 to 180 °C"
  },
  {
    "molecule": "CN1CCC(N(C)c2ccc3cc(-c4cn5cccnc5n4)c(=O)oc3c2)C1 (stereo not shown)",
    "readout_kind": "melting point",
    "assay_value": "215 to 217 °C"
  },
  {
    "molecule": "Cc1nccn2cc(-c3cc4ccc(N5CCCNCC5)cc4oc3=O)nc12",
    "readout_kind": "melting point",
    "assay_value": "212 to 216 °C"
  },
  {
    "molecule": "Cc1cn2cc(-c3cc4ccc(N5CCNCC5)cc4oc3=O)cc2cn1",
    "readout_kind": "melting point",
    "assay_value": "220 °C (dec.)"
  },
  {
    "molecule": "CN1CCN(c2ccc3cc(-c4cn5cccc(F)c5n4)c(=O)oc3c2)CC1",
    "readout_kind": "melting point",
    "assay_value": "278 to 280 °C"
  },
  {
    "molecule": "Cc1ccn2cc(-c3cc4ccc(N5C[C@@H](C)N[C@@H](C)C5)cc4oc3=O)nc2c1",
    "readout_kind": "melting point",
    "assay_value": "210 to 217 °C"
  },
  {
    "molecule": "O=c1oc2cc(N3CCN(CCO)CC3)ccc2cc1-c1cn2cccc(Cl)c2n1",
    "readout_kind": "melting point",
    "assay_value": "247 to 250 °C"
  },
  {
    "molecule": "Cc1cn2cc(-c3cc4ccc(CN5CCCCC5)cc4oc3=O)nc2c(C)n1",
    "readout_kind": "melting point",
    "assay_value": "191 to 193 °C"
  },
  {
    "molecule": "O=c1oc2cc(N3CCNCC3)ccc2cc1-c1cccnc1C(F)(F)F",
    "readout_kind": "melting point",
    "assay_value": "197 to 200 °C"
  },
  {
    "molecule": "C[C@H]1CN(c2ccc3cc(-c4cn5cccnc5n4)c(=O)oc3c2)CCN1",
    "readout_kind": "melting point",
    "assay_value": "282 to 285 °C"
  },
  {
    "molecule": "C[C@@H]1CN(c2ccc3cc(-c4nc(C(F)(F)F)cs4)c(=O)oc3c2)CCN1",
    "readout_kind": "melting point",
    "assay_value": "234 to 238 °C"
  },
  {
    "molecule": "CCc1cn2cc(-c3cc4ccc(N5CCNCC5)cc4oc3=O)nc2s1",
    "readout_kind": "melting point",
    "assay_value": "231 to 236 °C"
  },
  {
    "molecule": "Cc1cn2cc(-c3cc4ccc(N5CC[C@@H](N(C)C)C5)cc4oc3=O)cc2c(C)n1",
    "readout_kind": "melting point",
    "assay_value": "155 to 158 °C"
  },
  {
    "molecule": "Cc1cn2cc(-c3cc4ccc(N5CCN[C@H](C)C5)cc4oc3=O)cc2cn1",
    "readout_kind": "melting point",
    "assay_value": "220 to 223 °C"
  },
  {
    "molecule": "CCCN1CCN(c2ccc3cc(-c4cn5cccc(C)c5n4)c(=O)oc3c2)CC1",
    "readout_kind": "melting point",
    "assay_value": "249 to 251 °C"
  }
]

Measured values drawn from patent USRE47689E1 for this set.
